Listing of recorded Human PPB (FUplasma), fraction unbound in plasma (fraction unbound) by entry.
- target-system: human plasma proteins
- test-summary: plasma protein binding, ultracentrifugation, LC-MS/MS
Starred links: 1 amine or outer side, 2 acyl side, 3 side chain; linkers in the order of their positions; H or OH if unused. Non-standard residues stand in square brackets, D forms with d. Groups on a side chain read outwards from the residue. No end group written: not given here. *: point of attachment. C18 diacid = O=C(O)CCCCCCCCCCCCCCCCC(=O)*; C17 diacid = O=C(O)CCCCCCCCCCCCCCCC(=O)*; γGlu = O=C(O)[C@H](CCC(=O)[*:2])N[*:1]; NMeY = CN[C@@H](Cc1ccc(O)cc1)C(=O)O; AEEA = NCCOCCOCC(=O)O; Aib = CC(C)(N)C(=O)O
outcome-measure: Human PPB (FUplasma), fraction unbound in plasma (fraction unbound)

# binder, operator-symbol, assay-value
measured = [
    ("[NMeY][Aib]EGTFISDYSI[Aib]LDR[Aib]AQ[Aib]K([2OEGgEgE-C18 diacid])FVNWLLAQRG-OH [Compound No. 72]", "=", 0.0036),
    ("[NMeY][Aib]EGTFISDYSIALDR[Aib]AQ[Aib]K([AEEA-AEEA-γGlu-γGlu-C18 diacid])FVNWLLAQRG-OH [Compound No. 37]", "=", 0.001),
    ("[NMeY][Aib]EGTFISDYSIALDR[Aib]AQ[Aib]K([AEEA-AEEA-γGlu-γGlu-C17 diacid])FVNWLLAQRG-OH [Compound No. 36]", "<", 0.002),
    ("[NMeY][Aib]EGTFISDYSI[Aib]LDR[Aib]AQ[Aib]NFVNWLLAQK([AEEA-AEEA-γGlu-γGlu-C18 diacid])PSSGAPPPS-NH2 [Compound No. 27]", "=", 0.0013),
]
